molecular target: HLA-A*6801 (human); assay: 125I-probe peptide inhibition, purified HLA; settings: remark: other sources report otherwise
Non-standard residues stand in square brackets, D forms with d. No end group written: not given here. Abu = CC[C@H](N)C(=O)O
Assign pIC50 to each entry below.
Scale explanation: pIC50 corresponds to minus log10 of a concentration expressed in moles per litre.

Read off the recorded pIC50 for SV[Abu]MGGMNRK [p53.240.V2B3K10]
7.77

Read off the recorded pIC50 for SV[Abu]MGGMNK [p53.240.V2B3K9]
7.52

Read off the recorded pIC50 for KVYQGSYGFK [p53.101.V2K10]
7.42

Read off the recorded pIC50 for KVYQGSYGFR [p53.101.V2]
7.40

Read off the recorded pIC50 for BVYSPALNK (here or on the partner: B at position 1 = alpha-amino butyric acid (in place of Cys)) [p53.124.B1V2]
6.30

Read off the recorded pIC50 for SVSRHKKLMFR [p53.376.V2R11]
6.30
